# method_notes: Pharmacokinetics in rats, i.v.
# Format: in vivo
# experimental_conditions: SD, plasma, iv, 1 umol/kg; rat, 1 μmol/kg i.v., n = 5
attribute_measured: clearance
Just the number plus its unit, please.

Given the compound CC[C@H](C)[C@H](NC(=O)[C@H](CCC(=O)O)NC(=O)[C@H](CCC(=O)O)NC(=O)[C@H](Cc1ccccc1)NC(=O)[C@H](CC(=O)O)NC(=O)CNC(=O)[C@H](CC(N)=O)NC(=O)CNC(=O)CNC(=O)CNC(=O)CNC(=O)[C@@H]1CCCN1C(=O)[C@H](CCCNC(=N)N)NC(=O)[C@@H]1CCCN1C(=O)[C@H](N)Cc1ccccc1)C(=O)N1CCC[C@H]1C(=O)N[C@@H](CCC(=O)O)C(=O)N[C@@H](CCC(=O)O)C(=O)N[C@@H](Cc1ccc(O)cc1)C(=O)N[C@@H](CC(C)C)C(=O)O [Hirulog-1, reference compound] , what is its reported clearance?
42.6 mL/min/kg
